meta.source: patent JPH10251228A

molecular target: human NK-1 receptor (ヒトNK-1レセプター) (Homo sapiens, UniProt P25103); construct: expressed in transfected cells; host or cells: Chinese hamster ovary (CHO) cells, G418-selected; membranes prepared; assay: Neurokinin receptor binding assay, human NK1 ([3H]-substance P displacement, transfected CHO cell membranes); details: neurokinin receptor binding assay; [3H]-substance P 0.8 nM; CHO membranes; Cheng-Prusoff; read-out: NK1 Ki (binding)
Sequence (P25103 whole entry): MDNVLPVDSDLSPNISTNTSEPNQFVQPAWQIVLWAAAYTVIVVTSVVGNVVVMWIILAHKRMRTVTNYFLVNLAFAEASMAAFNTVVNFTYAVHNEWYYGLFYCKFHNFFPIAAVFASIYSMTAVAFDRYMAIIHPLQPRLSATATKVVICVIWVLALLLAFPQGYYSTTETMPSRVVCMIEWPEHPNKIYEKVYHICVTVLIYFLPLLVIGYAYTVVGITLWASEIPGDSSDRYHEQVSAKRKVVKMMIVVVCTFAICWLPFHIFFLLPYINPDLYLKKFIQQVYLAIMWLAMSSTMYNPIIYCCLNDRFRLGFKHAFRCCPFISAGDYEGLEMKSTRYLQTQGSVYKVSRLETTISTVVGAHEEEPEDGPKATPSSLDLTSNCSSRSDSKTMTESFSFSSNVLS
Assay Metric: Ki (µM)
Give bare numbers, in µM.

Look up Ki for this compound: CN(C(=O)CC(CCN1CCC(O)(c2ccccc2)CC1)c1ccc(Cl)c(Cl)c1)c1ccccc1 (stereo not shown)
0.15

* * *

target: human NK-1 receptor (ヒトNK-1レセプター) (Homo sapiens, UniProt P25103); construct: expressed in transfected cells; host or cells: Chinese hamster ovary (CHO) cells, G418-selected; membranes prepared; test: Neurokinin receptor binding assay, human NK1 ([3H]-substance P displacement, transfected CHO cell membranes)
Assay Metric: pKi
One number for each entry, as −log10 of the molar value.

# example entries with known answers
COc1cccc(CN(C)C(=O)CC(CCN2CCC(O)(c3ccccc3)CC2)c2ccc(Cl)c(Cl)c2)c1 (stereo not shown) : 7.92
COc1ccccc1CN(C)C(=O)CC(CCN1CCC(O)(c2ccccc2)CC1)c1ccc(Cl)c(Cl)c1 (stereo not shown) : 8.12
CN(Cc1ccccc1)C(=O)CC(CCN1CCC(O)(c2ccccc2)CC1)c1ccc(Cl)c(Cl)c1 (stereo not shown) : 8.17

Next item in the queue.
Report pKi for CN(CCc1ccccc1)C(=O)CC(CCN1CCC(O)(c2ccccc2)CC1)c1ccc(Cl)c(Cl)c1 (stereo not shown) please.
7.15
